Origin of measurements: patent US12091393B2

Tested on: NF-κB
assay-procedure: cell-based NF-κB FRET assay
assay-setup: compound + LPS; two point normalized, compound 1 as 200%, LPS (10 ng/mL) as 100%
A collection of molecules and their measured NF-κB FRET Compound + LPS % Activation

Some molecules with recorded NF-κB FRET Compound + LPS % Activation:
// lookup NF-κB FRET Compound + LPS % Activation for Cc1ccc(C)c(-c2csc(NC(=O)c3ccc(S(=O)(=O)N4CCCCC4)cn3)n2)c1 [Compound 46a]
151.90%

// lookup NF-κB FRET Compound + LPS % Activation for CCCC#Cc1sc(NC(=O)c2ccc(S(=O)(=O)N3CCC(CCC)CC3)cc2)nc1-c1cc(C)ccc1C
207.19%

// lookup NF-κB FRET Compound + LPS % Activation for Cc1ccc(-c2csc(NC(=O)c3ccc(S(=O)(=O)N4CCCCC4)cc3)n2)cc1C [Compound 12n]
128.01%

Continuing:
// lookup NF-κB FRET Compound + LPS % Activation for Cc1ccc(C)c(-c2csc(NC(=O)c3ccc(C(=O)N4CCCCC4)cc3)n2)c1 [Compound 49c]
134.09%

// lookup NF-κB FRET Compound + LPS % Activation for Cc1cc(C)cc(-c2csc(NC(=O)c3ccc(S(=O)(=O)N4CCCCC4)cc3)n2)c1 [Compound 12o]
170.36%

// lookup NF-κB FRET Compound + LPS % Activation for Cc1ccc2c(c1)-c1nc(NC(=O)c3ccc(S(=O)(=O)N4CCCCC4)cc3)sc1C2 [Compound 12r]
129.01%

// lookup NF-κB FRET Compound + LPS % Activation for Cc1ccc(C)c(-c2c[nH]c(NC(=O)c3ccc(S(=O)(=O)N4CCCCC4)cc3)n2)c1 [Compound 18a]
142.21%

// lookup NF-κB FRET Compound + LPS % Activation for CCCC1CCN(S(=O)(=O)c2ccc(C(=O)Nc3nc(-c4cc(C)ccc4Br)cs3)cc2)CC1
211.88%
